Each item that follows carries a reported IC50.
Test system: Plasmodium falciparum strain NF54
protocolDescription: Growth inhibition of Plasmodium falciparum NF54 (chloroquine-sensitive) in vitro, [G-3H]-hypoxanthin incorporation
Assay type: cell-based
conditionContext: chloroquine-sensitive strain NF54, 72 h, read-out: IC50 for P. falciparum NF54
Counter-ions that a name gives are not always drawn.
readoutLabel: IC50 (ng/mL)

COc1cc(N[C@H]2CC[C@H](Nc3ccnc4cc(Cl)ccc34)CC2)cc(OC)c1.Cl [Example 90]: 49.7
Cl.Cl.Clc1ccc2c(N[C@H]3CC[C@H](NCCc4ccc(Oc5ccccc5)cc4)CC3)ccnc2c1 [Example 98]: 4.5
COc1ccc(CN[C@H]2CC[C@@H](Nc3ccnc4cc(Cl)ccc34)CC2)c(OC)c1.Cl.Cl [Example 81]: 4.3
CC(C)(CNc1ccnc2cc(Cl)ccc12)NCc1ccc(Cl)cc1 [Example 25, dihydrochloride]: 17.3
COc1cc(OC)c(CN[C@H]2CC[C@H](Nc3ccnc4cc(Cl)ccc34)CC2)c(OC)c1.Cl.Cl [Example 108]: 4.6
COc1cc(CN[C@H]2CC[C@H](Nc3ccnc4cc(Cl)ccc34)CC2)cc(OC)c1 [Example 106]: 1.5
CC(C)(CNc1ccnc2cc(Cl)ccc12)NCc1ccc(Cl)c(Cl)c1 [Example 3]: 13.7
COc1ccc(OC)c(CCN[C@H]2CC[C@H](Nc3ccnc4cc(Cl)ccc34)CC2)c1.Cl.Cl [Example 97]: 4.1
Cl.Cl.Clc1ccc2c(N[C@H]3CCCC[C@@H]3NCc3ccccc3)ccnc2c1 [Example 60]: 7.7
Cl.Cl.Clc1ccc2c(N[C@H]3CC[C@@H](NCCc4ccccc4)CC3)ccnc2c1 [Example 13]: 2.7
Cl.Cl.Clc1ccc2c(N[C@H]3CC[C@@H](NCc4ccc(Cl)c(Cl)c4)CC3)ccnc2c1 [Example 74]: 23.3
Cl.Cl.Clc1ccc(CN[C@H]2CCCC[C@@H]2Nc2ccnc3cc(Cl)ccc23)c(Cl)c1 [Example 62]: 50.8
CC(C)(CNc1ccnc2cc(Cl)ccc12)NCc1cc(C(F)(F)F)cc(C(F)(F)F)c1 [Example 10]: 51.7
Cl.Cl.Fc1cccc(F)c1CN[C@H]1CC[C@@H](Nc2ccnc3cc(Cl)ccc23)CC1 [Example 19]: 4.9
CC(C)(CNc1ccnc2cc(Cl)ccc12)NCc1cccnc1.Cl.Cl.Cl [Example 57]: 21.7
